# target system: Src kinase (Homo sapiens)
# Construct: purchased Upstate Bioteolnology (sic; Upstate Biotechnology); later HMR stock 27597-019E1 #14-117
# protocol notes: Phosphorylation assay of Src kinase inhibitors (radiometric, 96 well filter plate)
# Format: biochemical
# condition summary: duplicates, tested in the range of 400-0.098 µM; 10 µM peptide substrate (FIYGAFKKKKNH2), 5 µM unlabeled ATP, room temperature 30 min; read-out: IC50
Form field: IC50 (one value per entry).
Answer with a number only, understood to be in µM.

Some solved entries appear below for comparison.
NC(=O)CNC(=O)c1cc2ccccc2cc1OCCCCNC(=O)[C@@H](N)Cc1ccc(O)cc1: 0.47
NC(=O)CNC(=O)c1cc2ccccc2cc1OCCCCNC(=O)[C@@H](N)Cc1ccc2ccccc2c1: 0.45
NC(=O)CNC(=O)[C@@H](Cc1ccccc1)NCCCCCNC(=O)[C@H](N)Cc1csc2ccccc12: 6
NC(=O)CNC(=O)c1cc2ccccc2cc1OCCCCNC(=O)C(N)C1Cc2ccccc2C1 (stereo not shown): 1.56
NC(=O)CCNC(=O)c1cc2ccccc2cc1OCCCCNC(=O)[C@@H](N)Cc1ccc(O)cc1: 52

[Q] Identify measured IC50 obtained with Src kinase (Homo sapiens) for NC(=O)CNC(=O)c1cc2ccccc2cc1OCCCCNC(=O)[C@@H](N)CCc1ccccc1 .
[A] 7.9

[Q] Identify measured IC50 obtained with Src kinase (Homo sapiens) for C=CCOC(=O)C(CCCOc1cc2ccccc2cc1C(=O)NCC(N)=O)NC(=O)[C@H](N)Cc1csc2ccccc12 (stereo partly shown) .
[A] 2.5

[Q] Identify measured IC50 obtained with Src kinase (Homo sapiens) for NC(=O)Cc1nc(-c2cc3ccccc3cc2OCCCCNC(=O)[C@@H](N)Cc2csc3ccccc23)no1 .
[A] 20

[Q] Identify measured IC50 obtained with Src kinase (Homo sapiens) for NC(=O)CNC(=O)c1cc2ccccc2cc1OCCCCNC(=O)C1NCCC1c1ccc(O)cc1 (stereo not shown) [Example 21] .
[A] 4.6

[Q] Identify measured IC50 obtained with Src kinase (Homo sapiens) for NCCCCOc1cc2ccccc2cc1C(=O)NCC(N)=O .
[A] 25

----------
# target system: Src kinase (Homo sapiens, UniProt P12931)
# Construct: purchased Upstate Bioteolnology (sic; Upstate Biotechnology); later HMR stock 27597-019E1 #14-117
# Sequence (P12931 whole entry): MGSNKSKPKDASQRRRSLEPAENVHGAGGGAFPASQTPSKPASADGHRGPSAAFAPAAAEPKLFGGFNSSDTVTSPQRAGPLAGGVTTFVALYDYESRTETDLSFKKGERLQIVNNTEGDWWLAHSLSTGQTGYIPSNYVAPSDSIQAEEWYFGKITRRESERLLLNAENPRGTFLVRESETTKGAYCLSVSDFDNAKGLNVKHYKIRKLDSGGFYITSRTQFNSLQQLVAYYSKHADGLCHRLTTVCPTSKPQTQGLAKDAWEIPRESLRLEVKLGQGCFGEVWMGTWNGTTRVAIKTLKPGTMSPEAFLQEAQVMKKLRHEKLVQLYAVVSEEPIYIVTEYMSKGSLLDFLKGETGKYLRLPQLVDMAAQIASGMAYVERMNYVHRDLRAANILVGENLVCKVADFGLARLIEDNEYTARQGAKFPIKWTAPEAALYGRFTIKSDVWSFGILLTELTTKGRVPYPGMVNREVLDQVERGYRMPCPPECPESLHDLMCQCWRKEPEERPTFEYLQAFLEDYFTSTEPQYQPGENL
# protocol notes: Phosphorylation assay of Src kinase inhibitors (radiometric, 96 well filter plate)
# Assay type: biochemical
# condition summary: duplicates, tested in the range of 400-0.098 µM; 10 µM peptide substrate (FIYGAFKKKKNH2), 5 µM unlabeled ATP, room temperature 30 min; read-out: IC50
parameter measured: log10(IC50) (log10 of the value in µM)
In our notation, the value equals log10 of IC50 in µM.

NC(=O)CNC(=O)c1cc2ccccc2cc1OCCCCNC(=O)[C@@H](N)Cc1ccc(O)c([N+](=O)[O-])c1 [Example 54]: -0.18
CCNC(=O)CNC(=O)c1cc2ccccc2cc1OCCCCN(C)C(=O)C(N)Cc1csc2ccccc12 (stereo not shown) [Example 154]: 0.60
NC(=O)CNC(=O)c1cc2ccccc2cc1C(=O)NCCCNC(=O)[C@@H](N)Cc1ccc(O)cc1 [Example 89]: 2.40
CN(CCCCOc1cc2ccccc2cc1C(=O)NCC(N)=O)C(=O)C(N)Cc1csc2ccccc12 (stereo not shown) [Example 153]: -0.48
NC(=O)CNC(=O)c1cc2ccccc2cc1OCCCCNC(=O)[C@@H](N)c1ccccc1 [Example 37]: 0.52
NC(=O)CNC(=O)c1c(Cl)c(Cl)cc(Cl)c1OCCCCNC(=O)[C@@H](N)Cc1ccc(O)cc1 [Compound 136]: 2.30

Could you now look at the following molecule, please?
[Q] Identify measured log10(IC50) obtained with Src kinase (Homo sapiens, UniProt P12931) for NC(=O)CNC(=O)c1cc2ccccc2cc1OCCCCNC(=O)[C@@H](N)Cc1cccc2ccccc12 [Example 57] .
[A] -0.43

----------
# target system: Src kinase (Homo sapiens, UniProt P12931)
# Construct: purchased Upstate Bioteolnology (sic; Upstate Biotechnology); later HMR stock 27597-019E1 #14-117
# protocol notes: Phosphorylation assay of Src kinase inhibitors (radiometric, 96 well filter plate)
# Format: biochemical
# condition summary: duplicates, tested in the range of 400-0.098 µM; 10 µM peptide substrate (FIYGAFKKKKNH2), 5 µM unlabeled ATP, room temperature 30 min; read-out: IC50
parameter measured: log10(IC50) (log10 of the value in µM)
In our notation, the value equals log10 of IC50 in µM.

Some solved entries appear below for comparison.
NC(=O)CNC(=O)c1cc2ccccc2cc1OCCCCNC(=O)[C@@H](N)Cc1csc2ccccc12 [Example 51]: -1.00
NC(=O)CNC(=O)c1cc2ccccc2cc1OCCCC(NC(=O)[C@H](N)Cc1csc2ccccc12)C(=O)O (stereo partly shown): 1.41
NC(=O)CNC(=O)c1cc2ccccc2cc1OCCCCN1CCNC(Cc2ccccc2)C1=O (stereo in doubt) [Example 30]: 0.94
NC(=O)CNC(=O)c1cc2ccccc2cc1OCCCCNC(=O)[C@H](N)Cc1ccccc1: 0.15
C[C@H](c1ccc(O)cc1)[C@H](N)C(=O)NCCCCOc1cc2ccccc2cc1C(=O)NCC(N)=O: 0.78
NC(=O)CNC(=O)c1cc2ccccc2cc1OCCCCNC(=O)[C@@H](N)C1CCCCC1: 0.30

[Q] Tell me measured log10(IC50) for NC(=O)CNC(=O)c1cc2ccccc2cc1OCCCCNC(=O)[C@H](N)Cc1ccc(O)cc1 please.
[A] 1.70

----------
# target system: Src kinase (Homo sapiens)
# Construct: purchased Upstate Bioteolnology (sic; Upstate Biotechnology); later HMR stock 27597-019E1 #14-117
# protocol notes: Phosphorylation assay of Src kinase inhibitors (radiometric, 96 well filter plate)
# Assay type: biochemical
# condition summary: duplicates, tested in the range of 400-0.098 µM; 10 µM peptide substrate (FIYGAFKKKKNH2), 5 µM unlabeled ATP, room temperature 30 min; read-out: IC50
Form field: log10 IC50 (one value per entry).
In our notation, the value equals log10 of IC50 in µM.

NC(=O)CC(=O)Nc1cc2ccccc2cc1OCCCCNC(=O)[C@@H](N)Cc1ccc(O)cc1: 0.70

[Q] Tell me measured log10 IC50 for NC(=O)CNC(=O)c1cc2ccccc2cc1OCCCCCCNC(=O)[C@@H](N)Cc1ccc(O)cc1 please.
[A] 0.85

[Q] Tell me measured log10 IC50 for C[N+](C)(C)[C@@H](Cc1ccccc1)C(=O)NCCCCOc1cc2ccccc2cc1C(=O)NCC(N)=O please.
[A] 1.15

[Q] Tell me measured log10 IC50 for NC(=O)C(CCC(=O)O)NC(=O)c1cc2ccccc2cc1OCCCCNC(=O)[C@@H](N)Cc1ccc(O)cc1 (stereo partly shown) please.
[A] 2.49

[Q] Tell me measured log10 IC50 for CC(NC(=O)c1cc2ccccc2cc1OCCCCNC(=O)[C@@H](N)Cc1ccc(O)cc1)C(N)=O (stereo partly shown) please.
[A] 1.40

[Q] Tell me measured log10 IC50 for N[C@@H](Cc1ccc(O)cc1)C(=O)NCCCCOc1cc2ccccc2cc1C(=O)NCCO please.
[A] 1.18

[Q] Tell me measured log10 IC50 for NC(=O)CC(=O)Nc1cc2ccccc2cc1OCCCCNC(=O)[C@@H](N)Cc1csc2ccccc12 please.
[A] 0.00

[Q] Tell me measured log10 IC50 for NC(=O)CNC(=O)[C@H](Cc1ccccc1)NCCCCCNC(=O)[C@H](N)Cc1csc2ccccc12 please.
[A] 0.78

[Q] Tell me measured log10 IC50 for NC(=O)CNC(=O)c1cc2ccccc2cc1OCc1cccc(NC(=O)[C@@H](N)Cc2ccc(O)cc2)c1 please.
[A] 0.85

[Q] Tell me measured log10 IC50 for CC(c1ccc(Cl)c(Cl)c1)[C@H](N)C(=O)NCCCCOc1cc2ccccc2cc1C(=O)NCC(N)=O (stereo partly shown) please.
[A] 0.19

[Q] Tell me measured log10 IC50 for NC(=O)CNC(=O)c1cc2ccccc2cc1OCCCCNC(=O)[C@@H](N)Cc1csc2ccccc12 [Example 44] please.
[A] -0.64

----------
# target system: Src kinase (Homo sapiens)
# Construct: purchased Upstate Bioteolnology (sic; Upstate Biotechnology); later HMR stock 27597-019E1 #14-117
# protocol notes: Phosphorylation assay of Src kinase inhibitors (radiometric, 96 well filter plate)
# Format: biochemical
# condition summary: duplicates, tested in the range of 400-0.098 µM; 10 µM peptide substrate (FIYGAFKKKKNH2), 5 µM unlabeled ATP, room temperature 30 min; read-out: IC50
Form field: IC50 (one value per entry).
Answer with a number only, understood to be in µM.

Some solved entries appear below for comparison.
NC(=O)CNC(=O)c1cc2ccccc2cc1OCCCCNC(=O)[C@@H](N)Cc1ccc(-c2ccccc2)cc1: 30
NC(=O)CNC(=O)c1cc2ccccc2cc1OCCCCNC(=O)[C@H](Cc1ccc(O)cc1)NC(=O)c1ccccc1: 23
NC(=O)CNC(=O)c1cc2ccccc2cc1OCCCCNC(=O)[C@@H](N)Cc1cccc(F)c1: 0.49

[Q] Identify measured IC50 obtained with Src kinase (Homo sapiens) for NC(=O)CNC(=O)c1cc2ccccc2cc1/N=C(/OCCCCNC(=O)C(N)Cc1ccc(O)cc1)C(F)(F)F (stereo not shown) .
[A] 19
